Below is a list of entries, each paired with its recorded relative viability value.
System: H3255
METHOD_SUMMARY: relative viability (nuclei count vs DMSO), 5 days (fraction); higher = more cells survive
TEST_CONTEXT: first compound 2.53 µM

relative viability for COc1nc(C)cnc1NS(=O)(=O)c1cccnc1-c1ccc(-c2nnco2)cc1 [Zibotentan] + Cc1nc(NC(=O)N2CCC[C@H]2C(N)=O)sc1-c1ccnc(C(C)(C)C(F)(F)F)c1 [Alpelisib] (partner 2 µM) ?
0.727

----------
System: A549
METHOD_SUMMARY: relative viability (nuclei count vs DMSO), 5 days (fraction); higher = more cells survive
TEST_CONTEXT: first compound 8 µM
ENDPOINT_NAME: relative viability
Answer with the value's number alone.

What is its relative viability for A549? Entry: O=c1cc(-c2cccc3c2Sc2ccccc2S3)oc(N2CCOCC2)c1 + C[C@]1(O)C[C@@H](c2nc(-c3ccc4ccc(-c5ccccc5)nc4c3)c3c(N)nccn32)C1 [Linsitinib] (partner 1 µM)
0.666

Now the compound O=c1cc(-c2cccc3c2Sc2ccccc2S3)oc(N2CCOCC2)c1 + C[C@@H](Oc1cc(-c2cnn(C3CCNCC3)c2)cnc1N)c1c(Cl)ccc(F)c1Cl [Crizotinib] (partner 1 µM)
0.578

O=c1cc(-c2cccc3c2Sc2ccccc2S3)oc(N2CCOCC2)c1 + Cc1nc(NC(=O)N2CCC[C@H]2C(N)=O)sc1-c1ccnc(C(C)(C)C(F)(F)F)c1 [Alpelisib] (partner 2 µM) , same question.
0.653

Would you mind doing O=c1cc(-c2cccc3c2Sc2ccccc2S3)oc(N2CCOCC2)c1 + CC1(C)CCC(c2ccc(Cl)cc2)=C(CN2CCN(c3ccc(C(=O)NS(=O)(=O)c4ccc(N[C@H](CCN5CCOCC5)CSc5ccccc5)c(S(=O)(=O)C(F)(F)F)c4)cc3)CC2)C1 [Navitoclax] (partner 0.5 µM) as well?
1.37

Every entry's value here was drawn from the supplement of paper PMC10307832.
